- TARGET OR TEST SYSTEM: MurA (Escherichia coli)
- Sequence (P0A749 whole entry): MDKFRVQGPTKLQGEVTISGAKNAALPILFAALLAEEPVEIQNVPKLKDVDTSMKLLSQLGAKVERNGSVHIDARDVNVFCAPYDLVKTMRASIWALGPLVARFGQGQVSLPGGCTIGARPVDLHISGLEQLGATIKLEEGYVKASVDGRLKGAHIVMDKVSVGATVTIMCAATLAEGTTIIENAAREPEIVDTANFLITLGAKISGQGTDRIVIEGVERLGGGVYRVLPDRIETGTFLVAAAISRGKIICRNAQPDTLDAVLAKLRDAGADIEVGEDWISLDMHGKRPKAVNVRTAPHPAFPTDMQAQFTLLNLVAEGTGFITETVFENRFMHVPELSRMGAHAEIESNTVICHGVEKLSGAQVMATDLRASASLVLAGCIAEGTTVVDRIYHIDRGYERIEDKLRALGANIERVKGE
VALUE KIND: pKi
Friendly reminder that pKi comes from taking -log10 of the concentration in mol/L.

// lookup pKi for CC(=O)N[C@H]1[C@@H](OP(=O)(O)OP(=O)(O)OC[C@H]2O[C@@H](n3ccc(=O)[nH]c3=O)[C@H](O)[C@@H]2O)O[C@H](CO)[C@@H](O)[C@@H]1OP(=O)(O)O 5.15
